Target: 6PGD (H1299 cell lysates or recombinant 6PGD) (Homo sapiens)
Construct: endogenous in cells; part of the results with recombinant 6PGD of unstated origin
Sequence (P52209 1-483): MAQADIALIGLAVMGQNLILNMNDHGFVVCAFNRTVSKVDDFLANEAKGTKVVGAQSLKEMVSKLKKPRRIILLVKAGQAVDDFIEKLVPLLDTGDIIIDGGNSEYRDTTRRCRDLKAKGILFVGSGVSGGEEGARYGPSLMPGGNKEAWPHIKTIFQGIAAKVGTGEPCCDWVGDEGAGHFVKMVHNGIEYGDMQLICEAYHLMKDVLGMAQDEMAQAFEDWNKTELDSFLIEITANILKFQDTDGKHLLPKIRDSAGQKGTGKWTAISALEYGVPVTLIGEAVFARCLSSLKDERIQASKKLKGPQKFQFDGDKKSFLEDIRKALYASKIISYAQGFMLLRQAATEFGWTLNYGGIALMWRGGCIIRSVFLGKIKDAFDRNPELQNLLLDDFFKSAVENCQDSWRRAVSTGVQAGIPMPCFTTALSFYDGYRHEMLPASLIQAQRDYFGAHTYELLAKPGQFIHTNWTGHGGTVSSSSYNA
Assay: 6PGD enzyme assay
Conditions: Dixon plot; read-out: inhibition constant (Ki) for 6PGD
measured endpoint: Ki (µM)
Number only, in µM; omit the unit.

Item under review: O=C(O)[C@H](O)COP(=O)(O)O [3-PG, 3-phosphoglycerate] . Reported Ki? 489
